# System: EV-A71
# method: CPE inhibition assay (Cell Titer Glo) against EV-A71 in Vero cells
# Format: cell-based, Enterovirus A71
# condition-details: read-out: IC50 for inhibition of EV-A71
endpoint-name: pIC50
The meaning of pIC50 here: minus log10 of the concentration in molar units.

query: Respond only with pIC50 recorded for Cl.N=C(N)N [GnHCl, Guanidinium hydrochloride, reference compound]
result: 3.85

* * *

# method: in vitro
# condition-details: African green monkey, CC50 (μM)
endpoint-name: CC50 at 3 days

query: // fetch CC50 at 3 days given entry CC(=O)Nc1ccc(-c2nc3ccccc3[nH]2)cc1 [Compound 1]
result: > 400 µM

query: Please list CC50 at 3 days recorded for the molecule COc1ccccc1OCC(=O)Nc1ccc(-c2nc3cc(C)ccc3[nH]2)cc1 [Compound T1]
result: 306 µM

query: Determine from records and report CC50 at 3 days for Cn1cccc1-c1nc2cc(NC(=O)c3ccccc3)ccc2[nH]1 [Compound 54]
result: 33.1 µM

query: // Input: Cc1ccc(-c2nc3ccccc3[nH]2)cc1NC(=O)c1cc2ccccc2o1 [Compound 66] . Output its CC50 at 3 days only.
result: 94.7 µM

query: Provide only the value of recorded CC50 at 3 days for O=C(Nc1ccc(-c2nc3ccccc3[nH]2)cc1)c1ccc(-c2ccc(Cl)cc2)o1 [Compound 26]
result: 44.3 µM

query: Fill in CC50 at 3 days for record O=C(Nc1ccc(-c2nc3ccccc3[nH]2)cc1)c1ccc(F)cc1 [Compound 14]
result: 133 µM

query: Supply recorded CC50 at 3 days for Cc1ccc2[nH]c(-c3ccc(NC(=O)CCC(=O)O)cc3)nc2c1 [Compound 5] here.
result: > 400 µM

query: Please indicate CC50 at 3 days recorded for O=C(Nc1cccc(-c2nc3ccccc3[nH]2)c1)c1cc2ccccc2o1 [Compound 67]
result: 43 µM

query: State its CC50 at 3 days for this molecule: Cc1ccc(-c2nc3ccccc3[nH]2)cc1NC(=O)c1ccco1 [Compound 60]
result: > 400 µM
